biological target: Melatonin receptor type 1A (Homo sapiens, UniProt P48039); experiment: Agonist activity at MT1 receptor (unknown origin) expressed in HEK293 cells by Fluo-8 dye-based calcium assay
Sequence (P48039 whole entry): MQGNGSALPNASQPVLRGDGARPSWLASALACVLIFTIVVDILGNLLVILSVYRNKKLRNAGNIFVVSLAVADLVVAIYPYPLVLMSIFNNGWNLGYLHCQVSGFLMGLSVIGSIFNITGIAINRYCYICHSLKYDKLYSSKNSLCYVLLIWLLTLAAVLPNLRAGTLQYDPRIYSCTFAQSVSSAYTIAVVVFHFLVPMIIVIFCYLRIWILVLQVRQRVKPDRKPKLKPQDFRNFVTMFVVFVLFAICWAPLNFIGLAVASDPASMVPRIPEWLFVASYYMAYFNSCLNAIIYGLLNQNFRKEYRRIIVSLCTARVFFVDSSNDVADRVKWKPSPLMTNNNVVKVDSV
reported property: EC50
Please report the result as a number followed by the unit.

In: Provide measured EC50 on Melatonin receptor type 1A (Homo sapiens, UniProt P48039) for Oc1ccc(Cc2ccc(O)cc2)cc1 please.
Out: 237 µM

---

molecular target: Melatonin receptor type 1A (Homo sapiens, UniProt P48039); experiment: Agonist activity at MT1 receptor (unknown origin) expressed in HEK293 cells at 0.5 mM by Fluo-8 dye-based calcium assay relative to control; format: functional, cell-based
Reported Activity values for the following compounds.
Please report the result as a number followed by the unit.

In: Determine from records and report Activity for OC[C@H]1O[C@@H](Oc2ccc(Sc3ccc(O)cc3)cc2)[C@H](O)[C@@H](O)[C@@H]1O
Out: -2.3%

In: Determine from records and report Activity for CCOCc1cc(Cc2ccc(O)cc2)ccc1O
Out: 37%

---

target: UniProtKB P48039; assay: Agonist activity at MT1 receptor (unknown origin) expressed in HEK293 cells at 0.5 mM by Fluo-8 dye-based calcium assay relative to control; format: functional, cell-based
reported property: Activity (%)
Answer format: numeric, % implied, no suffix.

smiles_entry=Oc1ccc(COc2ccc(Cc3ccc(O)cc3)cc2)cc1 measured_value=-5.6
smiles_entry=Oc1ccc(Cc2cc(Sc3ccc(O)cc3)ccc2O)cc1 measured_value=31.3
smiles_entry=CCOCc1ccc(O)c(Cc2ccc(O)c(COCC)c2)c1 measured_value=-11.2

In: Determine from records and report Activity for CC(=O)OC[C@H]1O[C@@H](Oc2ccc(Sc3ccc(O[C@@H]4O[C@H](COC(C)=O)[C@@H](OC(C)=O)[C@H](OC(C)=O)[C@H]4OC(C)=O)cc3)cc2)[C@H](OC(C)=O)[C@@H](OC(C)=O)[C@@H]1OC(C)=O
Out: -0.4

In: Determine from records and report Activity for CCOCc1ccc(O)c(Cc2ccc(O)cc2)c1
Out: 3.3

---

Reported Activity values for the following molecules.
target: Melatonin receptor type 1A (Homo sapiens, UniProt P48039); test: Agonist activity at MT1 receptor (unknown origin) expressed in HEK293 cells at 0.5 mM by Fluo-8 dye-based calcium assay relative to control; format: functional, cell-based
Answer format: numeric, % implied, no suffix.

smiles_entry=CN(c1ccc(O)cc1)c1ccc(O)cc1 measurement_units=% measured_value=-9.5
smiles_entry=Oc1ccc(Cc2ccc(O)c(Cc3ccc(O)cc3)c2)cc1 measurement_units=% measured_value=46.5
smiles_entry=CC(=O)OC[C@H]1O[C@@H](Oc2ccc(Sc3ccc(O)cc3)cc2)[C@H](OC(C)=O)[C@@H](OC(C)=O)[C@@H]1OC(C)=O measurement_units=% measured_value=0.3
smiles_entry=Oc1ccc(Cc2ccc(O)c(Cc3ccccc3Cc3ccccc3)c2)cc1 measurement_units=% measured_value=-2.3
smiles_entry=Oc1ccc(Cc2ccc(O)cc2)cc1 measurement_units=% measured_value=80.3
smiles_entry=CCOCc1ccc(O)c(Cc2ccc(O)c(Cc3ccc(O)cc3)c2)c1 measurement_units=% measured_value=-5.7
smiles_entry=Oc1ccc(COCc2ccc(O)c(Cc3ccc(O)cc3)c2)cc1 measurement_units=% measured_value=25.1
smiles_entry=Oc1ccc(Sc2ccc(O)cc2)cc1 measurement_units=% measured_value=44.6

Now look at this entry.
In: Determine from records and report Activity for Oc1ccc(Cc2cc(Oc3ccc(O)cc3)ccc2O)cc1
Out: 37.1

---

target: Melatonin receptor type 1A (Homo sapiens); assay: Agonist activity at MT1 receptor (unknown origin) expressed in HEK293 cells at 0.5 mM by Fluo-8 dye-based calcium assay relative to control; assay type: functional, cell-based
reported property: Activity (%)
Answer format: numeric, % implied, no suffix.

In: Determine from records and report Activity for CCOCc1cc(Cc2ccc(O)cc2)c(O)c(Cc2ccc(O)c(Cc3ccc(O)cc3)c2)c1
Out: -5.3

In: Determine from records and report Activity for Oc1ccc(Cc2ccc(O)c(Cc3ccccc3)c2)cc1
Out: -8.6

In: Determine from records and report Activity for Oc1ccc(Oc2ccc(O)cc2)cc1
Out: 45.9
